Test system: KRAS-mutant PDC tumor spheroid with HUVEC/MSC, viability;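 also: spheroids exposed to agents for seven days before reading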
Test Description: Anticancer human tumor 327498-153-R-J2-PDC patient-derived uterine carcinosarcoma cell line growth inhibition [KRAS2]; active = viability on the fitted dose curve at most 10% of control; inactive = the rest
Study Conditions: second compound 0.316 µM; first compound 0.1 µM
Excerpt: Multicellular complex tumor spheroid response to RAS pathway inhibitors in combination with a targeted agents in patient-derived cell lines with oncogenic KRAS variants from multiple cancer types A high-throughput screen of multi-cell type tumor spheroids was designed to identify active combinations of targeted small molecules and KRAS pathway inhibitors. […] Compounds. […] If the clinical Cmax for an agent had not been determined, the highest concentration tested was 10 microM. […]
Answer with one of the outcomes given here: active, inactive

Molecule	Measured Target	Class
CC(C)n1nc(-c2ccc3oc(N)nc3c2)c2c(N)ncnc21 + CNCc1ccccc1-c1csc(C(C)Nc2nc(C)nc3cc(OC)c(OC)cc23)c1	KRAS-mutant PDC tumor spheroid with HUVEC/MSC, viability	active
CN(C)C/C=C/C(=O)Nc1cc2c(Nc3ccc(F)c(Cl)c3)ncnc2cc1O[C@H]1CCOC1 + CC1OCC2(CCN(c3cnc(Sc4ccnc(N)c4Cl)c(N)n3)CC2)C1N	KRAS-mutant PDC tumor spheroid with HUVEC/MSC, viability	inactive

Attention now turns to another entry.
What did the test return for COC(=O)c1ccc2c(C(=Nc3ccc(N(C)C(=O)CN4CCN(C)CC4)cc3)c3ccccc3)c(O)[nH]c2c1 + C=CC(=O)N1CCN(c2nc(OCC3CCCN3C)nc3c2CCN(c2cccc4cccc(C)c24)C3)CC1CC#N ?
inactive
